Reference source for all entries: patent US20220274967A1

This section presents molecules with their documented pIC50 values.
Target: BCAT2 (Homo sapiens)
Sequence (O15382 28-392): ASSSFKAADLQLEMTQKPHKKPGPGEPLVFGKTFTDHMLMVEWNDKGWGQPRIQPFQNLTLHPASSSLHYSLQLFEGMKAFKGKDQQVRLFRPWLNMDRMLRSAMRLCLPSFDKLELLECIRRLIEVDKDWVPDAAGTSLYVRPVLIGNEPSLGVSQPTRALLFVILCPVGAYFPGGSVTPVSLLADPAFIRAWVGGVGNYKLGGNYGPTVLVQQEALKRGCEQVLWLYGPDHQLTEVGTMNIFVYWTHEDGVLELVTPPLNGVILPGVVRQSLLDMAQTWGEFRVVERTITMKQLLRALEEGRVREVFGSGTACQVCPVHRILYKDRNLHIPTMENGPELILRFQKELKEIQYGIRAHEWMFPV
pIC50: −log10 of the molar value.
MEASUREMENT_TYPE: pIC50

MOLECULE | REPORTED_MEASUREMENT
CNC(=O)c1ccc2c(c1)nc(-c1cccc(C#N)c1)n2[C@H]1CCC[C@@H](NC(=O)c2ccc(Br)s2)C1 [Compound 165] | < 6.00
CNC(=O)c1ccc2c(c1)nc(-c1cccc(F)c1)n2[C@H]1CCC[C@@H](NC(=O)c2ccc(Br)s2)C1 [Compound 154] | > 7.00
CNC(=O)c1ccc2c(c1)nc(-c1ccccc1C#N)n2[C@H]1CCC[C@@H](NC(=O)c2ccc(Br)s2)C1 [Compound 137] | > 7.00
COC(=O)c1ccc2c(c1)nc(-c1ccccn1)n2[C@@H]1CCC[C@H](NC(=O)c2ccc(Br)s2)C1 [Compound 109] | 6.30 to 7.00
CCCNC(=O)c1ccc2c(c1)nc(-c1ccccn1)n2[C@@H]1CCC[C@H](NC(=O)c2ccc(Br)s2)C1 [Compound 204] | 6.30 to 7.00
CC(=O)c1ccc2c(c1)nc(-c1ccccn1)n2[C@H]1CCC[C@@H](NC(=O)c2ccc(Br)s2)C1 [Compound 196] | > 7.00
CNC(=O)c1cc2nc(-c3ccccn3)n([C@H]3CCC[C@@H](NC(=O)c4ccc(Cl)s4)C3)c2cc1O [Compound 240] | > 7.00

---

pIC50: −log10 of the molar value.
// pIC50 collected for BCAT1 (Homo sapiens)
MEASUREMENT_TYPE: pIC50

COMPOUND | TESTED_ON | REPORTED_MEASUREMENT
CNC(=O)c1cc2nc(-c3cccc(F)c3)n(C3CCC[C@@H](NC(=O)c4ccc(F)s4)C3)c2cc1F (stereo partly shown) [Compound 225] | BCAT1 (Homo sapiens) | ≤ 6.00
CNC(=O)c1cc2nc(-c3sccc3F)n([C@H]3CCC[C@@H](NC(=O)c4ccc(Cl)s4)C3)c2cc1F [Compound 230] | BCAT1 (Homo sapiens) | 6.00 to 6.30
CNC(=O)c1ccc2c(c1)nc(-c1ncccn1)n2[C@H]1CCC[C@@H](NC(=O)c2ccc(Br)s2)C1 [Compound 147] | BCAT1 (Homo sapiens) | ≤ 6.00
CNC(=O)c1ccc2c(c1)nc(-c1ccccc1C)n2[C@H]1CCC[C@@H](NC(=O)c2ccc(Br)s2)C1 [Compound 135] | BCAT1 (Homo sapiens) | ≤ 6.00
CNC(=O)c1ccc2c(c1)nc(-c1ccccn1)n2[C@@H]1CCC[C@H](NC(=O)c2ccc(Br)s2)C1 [Compound 105] | BCAT1 (Homo sapiens) | 6.00 to 6.30
CNC(=O)c1cc2nc(-c3ccccn3)n(C3COCC(NC(=O)c4ccc(Br)s4)C3)c2cc1F (stereo not shown) [Compound 234] | BCAT1 (Homo sapiens) | 6.30 to 7.00
CNC(=O)c1cc2nc(-c3ccccc3C#N)n([C@H]3CCC[C@@H](NC(=O)c4ccc(Br)s4)C3)c2cc1F [Compound 157] | BCAT1 (Homo sapiens) | > 7.00
CNC(=O)c1ccc2c(c1)nc(-c1ccccc1C)n2[C@H]1CCC[C@@H](NC(=O)c2ccc(C#N)s2)C1 [Compound 134] | BCAT1 (Homo sapiens) | ≤ 6.00
O=C(N[C@@H]1CCC[C@H](n2c(-c3ccccc3F)nc3cccnc32)C1)c1ccc(Br)s1 [Compound 285] | BCAT1 (Homo sapiens) | 6.00 to 6.30
CNC(=O)c1cc2nc(-c3ccccn3)n([C@H]3CCC[C@@H](NC(=O)c4ccc(Br)s4)C3)c2cc1F [Compound 155] | BCAT1 (Homo sapiens) | 6.30 to 7.00
O=C(N[C@@H]1CCC[C@H](n2c(-c3ccccn3)nc3cnc(F)cc32)C1)c1ccc(Br)s1 [Compound 302] | BCAT1 (Homo sapiens) | 6.00 to 6.30
CNC(=O)c1ccc2c(c1)nc(-c1ccccn1)n2[C@@H]1CCC[C@H](NC(=O)c2ccc(Br)s2)C1 [Compound 102] | BCAT1 (Homo sapiens) | ≤ 6.00
CNC(=O)c1cc2nc(-c3ccccn3)n([C@H]3CCC[C@@H](NC(=O)c4ccc(Cl)s4)C3)c2cc1Cl [Compound 235] | BCAT1 (Homo sapiens) | ≤ 6.00
CNC(=O)c1cc2nc(-c3ncccc3F)n([C@H]3CCC[C@@H](NC(=O)c4ccc(Cl)s4)C3)c2cn1 [Compound 286] | BCAT1 (Homo sapiens) | > 7.00
CNC(=O)c1cc2nc(-c3c(F)ccc(F)c3O)n([C@H]3CCC[C@@H](NC(=O)c4ccc(C#N)s4)C3)c2cc1F [Compound 232] | BCAT1 (Homo sapiens) | ≤ 6.00
N#Cc1ccc2c(c1)nc(-c1ccccn1)n2[C@H]1CCC[C@@H](NC(=O)c2ccc(Br)s2)C1 [Compound 194] | BCAT1 (Homo sapiens) | ≤ 6.00
O=C(N[C@@H]1CCC[C@H](n2c(-c3ncccc3F)nc3cnccc32)C1)c1ccc(Br)s1 [Compound 284] | BCAT1 (Homo sapiens) | 6.30 to 7.00
CNC(=O)c1ccc2c(c1)nc(-c1ccccc1C#N)n2[C@H]1CCC[C@@H](NC(=O)c2ccc(C#N)s2)C1 [Compound 138] | BCAT1 (Homo sapiens) | 6.00 to 6.30
CNC(=O)c1ccc2c(c1)nc(-c1cccc(F)c1)n2C1CCCN(C(=O)Nc2ccccc2Cl)C1 (stereo not shown) [Compound 227] | BCAT1 (Homo sapiens) | ≤ 6.00
CNC(=O)c1cc2nc(-c3ncccc3F)n([C@H]3CCC[C@@H](NC(=O)c4ccc(Cl)s4)C3)c2cc1Cl [Compound 236] | BCAT1 (Homo sapiens) | ≤ 6.00
CNC(=O)c1ccc2c(c1)nc(-c1cccs1)n2[C@H]1CCC[C@@H](NC(=O)c2ccc(Br)s2)C1 [Compound 193] | BCAT1 (Homo sapiens) | 6.00 to 6.30
N#Cc1cc2nc(-c3ccccc3C#N)n(C3CCCC(NC(=O)c4ccc(Br)s4)C3)c2cn1 (stereo not shown) [Compound 306] | BCAT1 (Homo sapiens) | ≤ 6.00
CNC(=O)c1ccc2c(c1)nc(-c1ccccn1)n2[C@H]1CCC[C@@H](NC(=O)c2sc(Cl)cc2Cl)C1 [Compound 242] | BCAT1 (Homo sapiens) | ≤ 6.00
CNC(=O)c1ccc2c(c1)nc(-c1cccc(F)c1)n2[C@H]1CCC[C@@H](NC(=O)c2ccc(Br)s2)C1 [Compound 154] | BCAT1 (Homo sapiens) | ≤ 6.00
CNC(=O)c1ccc2c(c1)nc(-c1ccccc1C(F)F)n2C1CCC[C@@H](NC(=O)c2ccc(C#N)s2)C1 (stereo partly shown) [Compound 221] | BCAT1 (Homo sapiens) | 6.30 to 7.00
O=C(N[C@@H]1CCC[C@H](n2c(-c3ccccn3)nc3cccnc32)C1)c1ccc(Br)s1 [Compound 280] | BCAT1 (Homo sapiens) | ≤ 6.00
CNC(=O)c1ccc2c(c1)nc(-c1cnccn1)n2[C@H]1CCC[C@@H](NC(=O)c2ccc(Br)s2)C1 [Compound 149] | BCAT1 (Homo sapiens) | ≤ 6.00
CNC(=O)c1cc2nc(-c3ccccc3F)n(C3CCC[C@@H](NC(=O)c4ccc(F)s4)C3)c2cc1F (stereo partly shown) [Compound 226] | BCAT1 (Homo sapiens) | 6.30 to 7.00

---

This section presents molecules with their documented IC50 values.
Molecular target: BCAT1 (Homo sapiens)
Sequence (P54687 whole entry): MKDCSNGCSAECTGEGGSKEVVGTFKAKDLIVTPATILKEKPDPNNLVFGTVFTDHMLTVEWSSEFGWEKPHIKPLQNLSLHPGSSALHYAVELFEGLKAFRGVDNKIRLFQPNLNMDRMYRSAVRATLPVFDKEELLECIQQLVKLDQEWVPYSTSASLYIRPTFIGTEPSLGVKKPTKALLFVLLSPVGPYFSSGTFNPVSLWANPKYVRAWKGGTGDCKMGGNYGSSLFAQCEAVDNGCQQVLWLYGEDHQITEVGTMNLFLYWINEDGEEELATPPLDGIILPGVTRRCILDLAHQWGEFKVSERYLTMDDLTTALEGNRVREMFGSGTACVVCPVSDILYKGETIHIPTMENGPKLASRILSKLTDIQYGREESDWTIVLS
MEASUREMENT_TYPE: IC50

MOLECULE | MEASUREMENT_TYPE | REPORTED_MEASUREMENT
CNC(=O)c1ccc2c(c1)nc(-c1ccccc1C(F)F)n2C1CCC[C@@H](NC(=O)c2ccc(Br)s2)C1 (stereo partly shown) [Compound 223] | IC50 | < 100 nM
CNC(=O)c1cc2nc(-c3ccccn3)n([C@H]3CCC[C@@H](NC(=O)c4ccc(Br)s4)C3)c2cn1 [Compound 292] | IC50 | 100 to 500 nM
CNC(=O)c1ccc2c(c1)nc(-c1ccccn1)n2[C@H]1CCC[C@@H](NC(=O)c2sc(Br)cc2F)C1 [Compound 241] | IC50 | ≥ 1000 nM
CNC(=O)c1cc2nc(-c3cccc(F)c3)n(C3CCC[C@@H](NC(=O)c4ccc(Cl)s4)C3)c2cc1F (stereo partly shown) [Compound 224] | IC50 | 100 to 500 nM
CNC(=O)c1ccc2c(c1)nc(-c1ccccc1C#N)n2[C@H]1CCC[C@@H](NC(=O)c2ccc(Br)s2)C1 [Compound 136] | IC50 | 100 to 500 nM
N#Cc1ccc2c(c1)nc(-c1ccccn1)n2[C@H]1CCC[C@@H](NC(=O)c2ccc(Cl)s2)C1 [Compound 195] | IC50 | ≥ 1000 nM
CNC(=O)c1cc2nc(-c3ccccn3)n([C@H]3CCC[C@@H](NC(=O)c4ccc(Cl)s4)C3)c2cc1O [Compound 240] | IC50 | 500 to 1000 nM
